experiment: Human HepG2 cell viability assay in 384 well format; format: toxicity, cell-based; set-up: dose 125 nL, time 70.5 hour; concentration not given beside the values; details: HepG2 cells, read-out: Inhibition
measured.attribute: cytotoxicity at 70.5 h (%)
Give bare numbers, in %.

// known answers, use as guide
[[record]]
compound = "Cn1cc(C(=O)N2CCC(Cc3nccs3)CC2)cn1"
observed_result = 22.3

[[record]]
compound = "CC(C)CCNC(=O)c1ccc(Cl)c(NS(C)(=O)=O)c1"
observed_result = -4.83

[[record]]
compound = "CC1CN(C(=O)c2cccc(OCc3cscn3)c2)CCO1 (stereo unspecified)"
observed_result = -1.66

[[record]]
compound = "Cn1cccc1C(=O)N[C@@H]1CN(S(C)(=O)=O)[C@@H]2COC[C@@H]21"
observed_result = -8.37

[[record]]
compound = "O=C([C@H]1COC[C@H]2CN(C3CCOCC3)C[C@H]21)N1CCCO1"
observed_result = -1.26


// each listed compound needs a value for cytotoxicity at 70.5 h
1. NCC(CO)Cc1ccc(OC(F)(F)F)cc1 (stereo unspecified)
2. c1cnc(-c2nc(CN3CCC(c4ccn[nH]4)CC3)cs2)nc1
3. CC1CN(c2ccc(CNC(=O)NCc3ccoc3)cn2)CCO1 (stereo unspecified)
4. O=C(NCCNc1cnccn1)N1CCCCCC1
5. Cn1cc(C(=O)N2CCN(Cc3cscn3)CC2)ccc1=O
6. COc1ccc2c(c1)OCC(CNC(=O)CCc1c(C)n[nH]c1C)C2 (stereo unspecified)

Found:
1: -5.55; 2: 0.264; 3: -5.8; 4: 2.18; 5: 4.94; 6: -1.4

Just for reference, ChEMBL document CHEMBL3507680 is where these values come from.
